assay: physchem; assay type: physicochemical; settings: 37 °C, water, thermodynamic from solid, Solubility in water
observable: solubility at 30 min (µg/mL)
Write it as a number; the unit µg/mL goes unstated.

What does the record list as solubility at 30 min for Br.[2H]c1cc([C@]2(C#N)O[C@H](COC(=O)C(C)C)[C@@H](OC(=O)C(C)C)[C@H]2OC(=O)C(C)C)n2ncnc(N)c12 [Hydrobromide of Compound Z] ?
410

Value lookup for solubility at 30 min; key = O=C(O)/C=C\C(=O)O.[2H]c1cc([C@]2(C#N)O[C@H](COC(=O)C(C)C)[C@@H](OC(=O)C(C)C)[C@H]2OC(=O)C(C)C)n2ncnc(N)c12 [Maleate of Compound Z]
351

====

test: Toxicity test of a single intragastric administration to beagle dogs; assay type: in vivo; details: both sexes, beagle, dog, in vivo, po
observable: MTD at 14 days

Record request: MTD at 14 days value, item Br.[2H]c1cc([C@]2(C#N)O[C@H](COC(=O)C(C)C)[C@@H](OC(=O)C(C)C)[C@H]2OC(=O)C(C)C)n2ncnc(N)c12 [Hydrobromide of Compound Z]
≥ 1000 mg/kg

====

assay: Toxicity test of a single intragastric administration to SD rats; type: in vivo; settings: both sexes, Sprague-Dawley (SD), rat, in vivo, po
observable: MTD at 14 days

Reported MTD at 14 days for Br.[2H]c1cc([C@]2(C#N)O[C@H](COC(=O)C(C)C)[C@@H](OC(=O)C(C)C)[C@H]2OC(=O)C(C)C)n2ncnc(N)c12 [Hydrobromide of Compound Z] : what is it?
≥ 2000 mg/kg

====

assay: Toxicity test of beagle dogs by intragastric administration for 14 days and drug withdrawal for 14 days; type: in vivo; conditions: both sexes, dog, in vivo, po; beagle dogs, males and females, intragastric once a day for 14 consecutive days, 14 days recovery; read-out: no-observed-adverse-effect level (NOAEL)
observable: NOAEL at 14 days
Answers without a unit are incomplete; give the number and then its unit.

Looking for the measured NOAEL at 14 days of Br.[2H]c1cc([C@]2(C#N)O[C@H](COC(=O)C(C)C)[C@@H](OC(=O)C(C)C)[C@H]2OC(=O)C(C)C)n2ncnc(N)c12 [Hydrobromide of Compound Z] , can you help?
30 mg/kg
